Target Of Assay: Trace amine-associated receptor 1 (Homo sapiens)
Assay Info: blockers of beta-PEA-driven TAAR1 calcium signal – Fluo-8 calcium fluorescence, CHO RD-HGA16 cells, primary screen (AID 624466);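 also: 0% = DMSO plus EC80 beta-PEA response and 100% = DMSO alone without agonist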
Stated Conditions: CHO RD-HGA16 TAAR1, Fluo-8 calcium fluorescence, antagonist; at 3 µM; stronger effect = higher value
About 5,400 (1.5%) of roughly 360,000 compounds were called active. Many of the other results were omitted from the sample, so actives are more common in it than they were.
Readout Label: inhibition

Give the reported value of inhibition for this record: `COc1ccccc1NC(=O)COC(=O)c1ccccc1SCC(=O)N1CCCC1`
-8.15% (inactive)

Return reported inhibition. Input molecule: Cc1ccc(C2CC(c3cccc(NS(C)(=O)=O)c3)=NN2S(C)(=O)=O)cc1 (stereo not given)
0.27% (inactive)

Provide only the value of recorded inhibition for `O=C(COC(=O)c1ccccc1SCC(=O)N1CCCC1)Nc1ccccc1OC(F)F`
56.5% (active)

// fetch inhibition given entry CCN(CC)CCN(C)C(c1ccnc2ccccc12)c1nnnn1-c1ccc2c(c1)OCCO2 (stereo not given)
4.47% (inactive)

Note inhibition for the molecule shown: O=C(c1ccco1)N1CCN(C(=O)C2CCCN(S(=O)(=O)c3cccc4nsnc34)C2)CC1 (stereo not given)
8.68% (inactive)

###

Target Of Assay: Trace amine-associated receptor 1 (Homo sapiens) (UniProt Q96RJ0)
Sequence (Q96RJ0 whole entry, looked up): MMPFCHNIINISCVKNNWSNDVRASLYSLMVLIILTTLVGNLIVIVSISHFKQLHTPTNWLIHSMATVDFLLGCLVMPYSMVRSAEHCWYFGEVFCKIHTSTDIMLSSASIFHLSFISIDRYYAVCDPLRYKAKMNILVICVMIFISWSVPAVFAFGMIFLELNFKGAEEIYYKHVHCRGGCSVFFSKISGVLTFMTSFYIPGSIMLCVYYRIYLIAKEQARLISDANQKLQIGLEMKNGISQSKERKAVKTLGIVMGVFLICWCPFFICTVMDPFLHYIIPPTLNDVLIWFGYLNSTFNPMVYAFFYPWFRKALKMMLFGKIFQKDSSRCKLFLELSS
Assay Info: blockers of beta-PEA-driven TAAR1 calcium signal – Fluo-8 calcium fluorescence, CHO RD-HGA16 cells, primary screen (AID 624466);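 also: 0% = DMSO plus EC80 beta-PEA response and 100% = DMSO alone without agonist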
Stated Conditions: CHO RD-HGA16 TAAR1, Fluo-8 calcium fluorescence, antagonist; at 3 µM; stronger effect = higher value
The campaign covered roughly 360,000 compounds. About 5,400 (1.5%) were called active. This is one part of a sample in which actives are shown more often than they occur.
Readout Label: inhibition

Let me know recorded inhibition for `COC(=O)Nc1ccc(S(=O)(=O)Nc2cc(OC)nc(OC)n2)cc1` , thanks.
-1.45% (inactive)

Return inhibition for the following compound: `Nc1[nH]c(C(=O)c2ccccc2)c(-c2ccc(Cl)cc2Cl)c1C(=O)c1ccccc1`
-37.8% (inactive)

Name the recorded inhibition of the item `O=C(COC(=O)C1CCCCC1)Nc1ccc([N+](=O)[O-])cc1` in your answer.
35.5% (inactive)

Determine from records and report inhibition for CN(CCc1ccccn1)C1CCCN(S(=O)(=O)c2ccccc2Cl)C1 (stereo not given)
-19.7% (inactive)

Please report the measured inhibition for Fc1ccccc1C(c1nnnn1Cc1ccc2c(c1)OCO2)N1CCN(Cc2ccccc2)CC1 (stereo not given)
8.62% (inactive)

Annotate the compound COc1ccc(C(=O)Nc2ccc(C(=O)NCC3CCCO3)cc2)c(OC)c1OC (stereo not given) with its measured inhibition.
-23% (inactive)

Tell us which inhibition value is on record for `Nc1[nH]c(C(=O)c2ccc(Br)cc2)c(-c2ccc3c(c2)OCO3)c1C(=O)NCCc1c[nH]c2ccccc12`
-6.65% (inactive)

In one line, give reported inhibition of the entry CC(NC(=O)c1ccccc1)C(=O)OCC(=O)Nc1cccc(S(=O)(=O)N2CCCC2)c1 (stereo not given) .
-4.21% (inactive)

Complete the entry with inhibition for CCC(C)c1ccc(NC(=O)COC(=O)C2CCCC2)cc1 (stereo not given)
5.25% (inactive)

For the compound Fc1ccc(Cn2nnnc2C(c2cccs2)N2CCCCCC2)cc1 (stereo not given) , give its reported inhibition.
50% (active)

###

Target Of Assay: Trace amine-associated receptor 1 (Homo sapiens) (UniProt Q96RJ0)
Assay Info: blockers of beta-PEA-driven TAAR1 calcium signal – Fluo-8 calcium fluorescence, CHO RD-HGA16 cells, primary screen (AID 624466);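 also: 0% = DMSO plus EC80 beta-PEA response and 100% = DMSO alone without agonist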
Stated Conditions: CHO RD-HGA16 TAAR1, Fluo-8 calcium fluorescence, antagonist; at 3 µM; stronger effect = higher value
In all, about 360,000 compounds went through this assay and about 5,400 (1.5%) were called active. The list comes from a sample in which actives are over-represented; it also holds close analogues and randomly drawn compounds.
Exercise: state measured inhibition for each of the molecules provided.
Give the value, in units of %, as a plain number.

Please tell me the measured inhibition for S=C(NCCc1ccccc1)N1CCn2cccc2C1c1ccncc1 (stereo unspecified) ; system: Trace amine-associated receptor 1 (Homo sapiens) (UniProt Q96RJ0).
76.5

Enter measured inhibition, system Trace amine-associated receptor 1 (Homo sapiens) (UniProt Q96RJ0), for the molecule shown: CNC(=O)C1CC(=O)N(Cc2ccc3c(c2)OCO3)C(=Nc2ccc(F)cc2)S1 (stereo unspecified)
11.3

Provide measured inhibition on Trace amine-associated receptor 1 (Homo sapiens) (UniProt Q96RJ0) for `CCNS(=O)(=O)c1ccc(CCC(=O)N2CCN(c3cc(Cl)ccc3C)CC2)cc1` please.
65.9

Name the recorded inhibition of `O=C(Nc1ccncc1)Nc1ccc(F)cc1` , assay system Trace amine-associated receptor 1 (Homo sapiens) (UniProt Q96RJ0).
57.8

Look up and report inhibition, with Trace amine-associated receptor 1 (Homo sapiens) (UniProt Q96RJ0) as system, for `Cc1ccc(-c2nc3c(C)cc(Br)cn3c2Cc2ccccc2)cc1`
-21.5

Param request: inhibition | system Trace amine-associated receptor 1 (Homo sapiens) (UniProt Q96RJ0) | item `CCN(CCCNC(=O)c1ccc2c(c1)NC(=O)CN2C)c1cccc(C)c1`
-2.86

State the measured inhibition (Trace amine-associated receptor 1 (Homo sapiens) (UniProt Q96RJ0)) of `COc1cccc(NC(=O)Nc2ccc(F)cc2)c1`
14.5

Fill in inhibition for `Cc1ccc(NC(=O)C(=O)NCc2ccc(/C=N/NC(=O)c3c(C)nc4cc(C)ccn34)o2)cc1` tested with Trace amine-associated receptor 1 (Homo sapiens) (UniProt Q96RJ0).
-9.86

Please respond with reported inhibition (system Trace amine-associated receptor 1 (Homo sapiens) (UniProt Q96RJ0)) for `CO[C@@H]1CN(C)C(=O)c2cc(NC(=O)Nc3cc(F)ccc3F)ccc2OC[C@H](C)N(C(=O)c2ccccn2)C[C@@H]1C` .
-23.9

Look up and report inhibition, with Trace amine-associated receptor 1 (Homo sapiens) (UniProt Q96RJ0) as system, for `Cc1cc(OCC(=O)NC2CCN(C)CC2)ccc1[N+](=O)[O-]`
-21.6

Tell me its inhibition on Trace amine-associated receptor 1 (Homo sapiens) (UniProt Q96RJ0): CCC(C(=O)NCc1ccccc1)n1c(Cc2cc(F)cc(F)c2)nc2ccccc21 (stereo unspecified)
-4.56

State measured inhibition of the molecule S=C(Nc1cccc(Br)c1)N1CCn2cccc2C1c1cccnc1 (stereo unspecified) with Trace amine-associated receptor 1 (Homo sapiens) (UniProt Q96RJ0).
-5.72

Name the value of inhibition reported for `Nc1c(NCCc2ccccc2)c2ccccc2oc1=O` when tested on Trace amine-associated receptor 1 (Homo sapiens) (UniProt Q96RJ0).
66.7

Determine reported inhibition for `CN(C)CCCn1c(SCCN2C(=O)c3ccccc3C2=O)nc2ccccc2c1=O` ; test system: Trace amine-associated receptor 1 (Homo sapiens) (UniProt Q96RJ0).
-1.92

Please report the measured inhibition for `COc1ccc(OC)c(CNC(=O)Cn2nc(C)c3c(C)n(-c4ccc(C)cc4)nc3c2=O)c1` tested on Trace amine-associated receptor 1 (Homo sapiens) (UniProt Q96RJ0).
-15.7

Give the observed inhibition of `C[C@@H]1ON(C)[C@H]2C[C@H]3c4cc(N5CCOCC5)ccc4CCN3C[C@@H]12` for Trace amine-associated receptor 1 (Homo sapiens) (UniProt Q96RJ0).
-3.17

Report value: inhibition, system: Trace amine-associated receptor 1 (Homo sapiens) (UniProt Q96RJ0), molecule: `COC(=O)c1c(-c2ccc(OC)cc2)c2c(c3c4ccccc4n(S(=O)(=O)c4ccc(C)cc4)c13)C(=O)N(C)C2`
-15.3

Param request: inhibition | system Trace amine-associated receptor 1 (Homo sapiens) (UniProt Q96RJ0) | item `Cc1cc(SCC(=O)c2ccccc2)nc(SCC(=O)c2ccccc2)n1`
51.6

Write inhibition of `O=C(NCCN1CCOCC1)c1cc(Sc2cccc(Cl)c2)nc2ccccc12` ; system used: Trace amine-associated receptor 1 (Homo sapiens) (UniProt Q96RJ0)
-6.08

Fetch value of inhibition on Trace amine-associated receptor 1 (Homo sapiens) (UniProt Q96RJ0) for COC(=O)C1=C(C)N(Cc2ccccc2C(F)(F)F)C(=NCc2ccc(OC)cc2)NC1c1cccc(C(F)(F)F)c1 (stereo unspecified) .
4.48

Please indicate recorded inhibition of `CCOc1ccc(N(CC(=O)OC)S(=O)(=O)c2c(C)noc2C)cc1` measured with Trace amine-associated receptor 1 (Homo sapiens) (UniProt Q96RJ0).
1.95

Look up Trace amine-associated receptor 1 (Homo sapiens) (UniProt Q96RJ0) data: inhibition of `Cc1noc(C)c1S(=O)(=O)N(CC(=O)NCc1ccc(Cl)cc1)c1ccc2c(c1)OCO2` , then report it.
-0.54

Tell me its inhibition on Trace amine-associated receptor 1 (Homo sapiens) (UniProt Q96RJ0): `CCCCCCc1cc2cc(-c3nnc(-c4cccc(OC)c4)o3)c(=O)oc2cc1O`
15.5

Fill: inhibition (Trace amine-associated receptor 1 (Homo sapiens) (UniProt Q96RJ0)) for this molecule `CCNS(=O)(=O)c1ccc(CCC(=O)N2CCN(c3ccc(OC)cc3)CC2)cc1`
8.27

Print Trace amine-associated receptor 1 (Homo sapiens) (UniProt Q96RJ0) inhibition for `Cc1nc2nc(SCC(=O)c3ccccc3)[nH]c2cc1Br` .
-5.84

Give measured inhibition for CSCCC(C(=O)NC(C)(C)C)n1c(-c2ccccc2)nc2ccccc21 (stereo unspecified) (Trace amine-associated receptor 1 (Homo sapiens) (UniProt Q96RJ0)).
-24.9

Provide inhibition, system Trace amine-associated receptor 1 (Homo sapiens) (UniProt Q96RJ0), entry `Cc1cc(C)n2c(NCc3ccccc3)c(CC(C)C)nc2n1`
-31.3

Please look at CN(C(=O)c1cccc(OC2CCN(S(=O)(=O)N(C)C)CC2)c1)C1CCOC1 (stereo unspecified) and tell me its recorded inhibition on Trace amine-associated receptor 1 (Homo sapiens) (UniProt Q96RJ0).
-15.9

Under Trace amine-associated receptor 1 (Homo sapiens) (UniProt Q96RJ0): report inhibition of `CCCNS(=O)(=O)c1ccc(CCC(=O)N2CCCC2)cc1` .
-0.2

Enter recorded inhibition with Trace amine-associated receptor 1 (Homo sapiens) (UniProt Q96RJ0) for `CCCCCn1nnnc1-c1nc2cc3ccccc3cc2[nH]c1=O` here.
21.1

GET inhibition | system: Trace amine-associated receptor 1 (Homo sapiens) (UniProt Q96RJ0) | item: `O=C1c2ccccc2C(=O)N1CCC#Cc1ccc2cc(C3(O)CCCCC3)oc(=O)c2c1`
75.1

Tell me inhibition of `Cc1nc(SCC(=O)c2ccccc2)c([N+](=O)[O-])[nH]1` when tested on Trace amine-associated receptor 1 (Homo sapiens) (UniProt Q96RJ0).
8.14

Please report inhibition with Trace amine-associated receptor 1 (Homo sapiens) (UniProt Q96RJ0) for item `COc1ccc(N(CC(=O)Nc2cc(OC)ccc2OC)S(=O)(=O)c2c(C)noc2C)cc1` .
4.12

Report inhibition under test system Trace amine-associated receptor 1 (Homo sapiens) (UniProt Q96RJ0) for `Cc1cc(Cl)c(S(=O)(=O)NCc2cccnc2)cc1OCC(N)=O` .
-0.54

Provide the reported inhibition (system: Trace amine-associated receptor 1 (Homo sapiens) (UniProt Q96RJ0)) for N#Cc1ccc(C(C(=O)NCc2ccccc2)n2c(=O)c(-c3ccco3)nc3ccccc32)cc1 (stereo unspecified)
-2.89

Answer briefly: inhibition recorded on Trace amine-associated receptor 1 (Homo sapiens) (UniProt Q96RJ0) for `O=C(NCCN1CCOCC1)Nc1cccc(Cl)c1`
-1.82

Recall the reported inhibition of `C[C@H]1CN([C@@H](C)CO)C(=O)CCCn2nncc2CO[C@@H]1CN(C)C(=O)Nc1ccc(N2CCN(C)CC2)cc1` on Trace amine-associated receptor 1 (Homo sapiens) (UniProt Q96RJ0) and write it down.
5.42

Report value: inhibition, system: Trace amine-associated receptor 1 (Homo sapiens) (UniProt Q96RJ0), molecule: `CC(C)(C)Nc1c(N)c(=O)oc2ccccc12`
15

Please respond with reported inhibition (system Trace amine-associated receptor 1 (Homo sapiens) (UniProt Q96RJ0)) for `CCN1C(=O)N[C@@H]2C[C@H](C(=O)N3CCCC3)[C@H](C)[C@H](c3ccccc3)C[C@@H]21` .
6

Recall the reported inhibition of `O=[N+]([O-])c1ccc(N2CCNCC2)cc1NCc1cccnc1` on Trace amine-associated receptor 1 (Homo sapiens) (UniProt Q96RJ0) and write it down.
13.4

Provide the reported inhibition (system: Trace amine-associated receptor 1 (Homo sapiens) (UniProt Q96RJ0)) for `O=C(CN(c1ccc2c(c1)OCCO2)S(=O)(=O)c1ccccc1)Nc1ccc2c(c1)OCO2`
54

Hello, the source for this data is PubChem BioAssay AID624466, in case you need it.
